Test system: SNB-75 CNS
method: NCI tumour cell line growth inhibition, 48 h
endpoint-label: TGI

compound	endpoint-label	result
N#C/C(N)=C(\C#N)NC(=O)C(=O)N/C(C#N)=C(\N)C#N	TGI	> 100 µM
COc1ccccc1NC(=O)CC(=O)N/N=C/c1ccc(N(CCC#N)S(=O)(=O)c2ccccc2)cc1	TGI	> 100 µM
C=C(Br)CNC(=O)CCC(=O)NCC(=C)Br	TGI	> 100 µM
COc1ccc(-c2cc3[nH]nc(N)c3c(=O)o2)cc1	TGI	> 100 µM
CC(C)(C)c1cc(O)ccc1O	TGI	25.2 µM
Cc1ccc(S(=O)(=O)N2CCCSCC2)cc1	TGI	> 100 µM
O=C1C(=O)c2cccnc2-c2ncccc21	TGI	1.4 µM
O=C(OC[C@H]1O[C@H](OC(=O)c2cc(O)c(O)c(OC(=O)c3cc(O)c(O)c(O)c3)c2)[C@H](OC(=O)c2cc(O)c(O)c(OC(=O)c3cc(O)c(O)c(O)c3)c2)[C@@H](OC(=O)c2cc(O)c(O)c(OC(=O)c3cc(O)c(O)c(O)c3)c2)[C@@H]1OC(=O)c1cc(O)c(O)c(OC(=O)c2cc(O)c(O)c(O)c2)c1)c1cc(O)c(O)c(OC(=O)c2cc(O)c(O)c(O)c2)c1	TGI	> 25 µM
N#Cc1cnc(N)nc1NCC1(CO)CC(CCc2ccccc2)C1 (stereo unspecified)	TGI	> 83.1 µM
O=C1C(=Cc2c(O)cc(O)cc2O)C(=O)c2ccccc21	TGI	> 59.7 µM
CC1=C(C(=O)Nc2ccccc2)C2(CCCCC2)C(C#N)=C(SCC(=O)Nc2ccc(Br)cc2)N1	TGI	30.3 µM
O=C(O)C1CC(O)CN1 (stereo unspecified)	TGI	> 100 µM
CCCCCCCc1cc2c3c(nc4ccccc42)C(=O)c2cccnc2-c3n1	TGI	10.1 µM
CC(=O)OCc1ccc2oc(=O)c(C(=O)Oc3ccccc3)cc2c1	TGI	> 100 µM
CCOC(=O)C(SCCO)C(C(=O)OCC)n1ccc(=O)[nH]c1=O (stereo unspecified)	TGI	> 95.9 µM
CCC(=O)Nc1ccc(N2C(=O)C(Cl)C2c2ccc(SC)cc2)cc1 (stereo unspecified)	TGI	> 100 µM
N#CC1(C#N)C(C#N)(C#N)C12CCCCCC2	TGI	> 55.3 µM
NC(N)=Nc1ccc(CC(N)C(=O)O)cc1 (stereo unspecified)	TGI	> 12.5 µM
CC(C(O)c1ccccc1)C(O)(C(F)(F)F)C(F)(F)F (stereo unspecified)	TGI	> 100 µM
N#Cc1ccc(-n2c3ccccc3c3ccc4c(c32)C(=O)C=CC4=O)cc1	TGI	> 53.3 µM
Cc1cc(N2CCOCC2)cc2[nH]c(-c3c(NC[C@@H](O)c4cccc(Cl)c4)cc[nH]c3=O)nc12	TGI	2.47 µM
